system: MCF7; test: percentage of EdU-negative (G0-arrested) nuclei per well, 72 h; higher = more G0 arrest; conditions: protein concentration 0.3125 µM; reference: sequence is the full UniProt precursor, the tested protein was the secreted form or ectodomain;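 note: secreted proteins added to cultured cells, EdU pulse at the end, nuclei found by Hoechst imaging, EdU status from nuclear versus surrounding ring intensity ratio, PBS as neutral control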
Recorded measurements of percentage of EdU-negative, one per entry
Expressed in %, but write only the number.

query-sequence | percentage of EdU-negative, %
MQRLCVYVLIFALALAAFSEASWKPRSQQPDAPLGTGANRDLELPWLEQQGPASHHRRQLGPQGPPHLVADPSKKQGPWLEEEEEAYGWMDFGRRSAEDEN | 26.7

// percentage of EdU-negative lookup, key: MIPGGLSEAKPATPEIQEIVDKVKPQLEEKTNETYGKLEAVQYKTQVVAGTNYYIKVRAGDNKYMHLKVFKSLPGQNEDLVLTGYQVDKNKDDELTGF
23.6

# repeat for MEMLQGLLLLLLLSMGGAWASREPLRPWCHPINAILAVEKEGCPVCITVNTTICAGYCPTMMRVLQAVLPPLPQVVCTYRDVRFESIRLPGCPRGVDPVVSFPVALSCRCGPCRRSTSDCGGPKDHPLTCDHPQLSGLLFL
25.5

Another sequence: MKSGLWYFFLFCLRIKVLTGEINGSANYEMFIFHNGGVQILCKYPDIVQQFKMQLLKGGQILCDLTKTKGSGNTVSIKSLKFCHSQLSNNSVSFFLYNLDHSHANYYFCNLSIFDPPPFKVTLTGGYLHIYESQLCCQLKFWLPIGCAAFVVVCILGCILICWLTKKKYSSSVHDPNGEYMFMRAVNTAKKSRLTDVTL [Q9Y6W8]
25.9

Request: MMCGAPSATQPATAETQHIADQVRSQLEEKENKKFPVFKAVSFKSQVVAGTNYFIKVHVGDEDFVHLRVFQSLPHENKPLTLSNYQTNKAKHDELTYF
26.5
